# Tested on: SNB-75 CNS
# ASSAY PROTOCOL: NCI tumour cell line growth inhibition, 48 h; in the data active = GI50 below about 0.43 µM; inactive = the rest
Give your call using only these classes: class 1 = active, class 0 = inactive

# count of solved cases: 3
Recorded call for "COc1cc(-c2nn(-c3ccc(NC(=O)c4cc(Cl)cc(Cl)c4)cc3)cc2-c2ccncc2)ccc1Cl" ?
class 0

Recorded call for "O=C1c2ccn(CCCCN3CCC(O)CC3)c2C(=O)c2c1c(O)c1ccccc1c2O" ?
class 0

Recorded call for CC(=O)C1(O)Cc2c(O)c3c(c(O)c2C(OC2CC(N)C(O)C(C)O2)C1)C(=O)c1ccccc1C3=O (centres undefined) ?
class 1

Here is the next item to consider.
Recorded call for "CCOc1cc(C(C)(C)C)ccc1C1=N[C@@](C)(c2ccc(Cl)cc2)[C@@](C)(c2ccc(Cl)cc2)N1C(=O)N1CCN(CCS(C)(=O)=O)CC1" ?
class 0

###

# Tested on: OVCAR-8 ovarian
# ASSAY PROTOCOL: NCI tumour cell line growth inhibition, 48 h
MEASURED PARAMETER: TGI

# annotated cases, reported TGI shown
Fetch value of TGI on OVCAR-8 ovarian for "Brc1cccc[n+]1-c1ccc2cc(-[n+]3ccccc3Br)ccc2c1" .
> 100 µM

Fetch value of TGI on OVCAR-8 ovarian for "NS(=O)(=O)c1ccc(NC(=O)Nc2ccccc2F)cc1" .
> 100 µM

Fetch value of TGI on OVCAR-8 ovarian for "CCOC(=S)SCN1C(=O)c2ccccc2S1(=O)=O" .
> 100 µM

Fetch value of TGI on OVCAR-8 ovarian for "Cc1cc(S(=O)(=O)Nc2nc3cc(Cl)ccc3o2)c(SCc2ccccc2)cc1Cl" .
26.1 µM

Fetch value of TGI on OVCAR-8 ovarian for "COc1ccccc1N=C1SCCN1C(=S)Nc1ccc(S(=O)(=O)/N=C/N(C)C)cc1" .
> 100 µM

Fetch value of TGI on OVCAR-8 ovarian for CC1(C)CC2C(C1=O)C1(C)CCCC2(C)C1=O (stereo unspecified) .
> 100 µM

Fetch value of TGI on OVCAR-8 ovarian for "CC1(C)[C@@H](OC(N)=O)C=C[C@]2(C=O)[C@H]3CC[C@]4(C)[C@@H](c5ccc(=O)oc5)[C@@H](Cl)C[C@]4(O)C3=CC[C@@H]12" .
0.0123 µM

Fetch value of TGI on OVCAR-8 ovarian for "CC(C)(C)C(=O)OCc1nc2cc3c(cc2c(=O)[nH]1)CCC3=O" .
> 100 µM

Fetch value of TGI on OVCAR-8 ovarian for "O=C1c2cc([N+](=O)[O-])sc2C(=O)c2ccsc21" .
2.01 µM

Fetch value of TGI on OVCAR-8 ovarian for "C1CC[N-]CC1.CC(=N\O)/C(C)=N/O.CC(=N\O)/C(C)=N/O.[CH2-]CCN1CCOCC1.[Co+2]" .
> 100 µM

// input: 8 compounds below; output: TGI for each
1. COc1cc2c(c(OC)c1OC)-c1ccc(SC)cc1C(=O)CC2
2. CC(=O)CC(=O)/C=C/c1cccs1
3. C[N+](C)(N)c1nc(N)c(C#N)c(C#N)c1C#N
4. Oc1c(CN2CCOCC2)cc(COCc2ccccc2)c2cccnc12
5. CC(=O)OCC1OC(N2C(S)=C(C#N)C(c3ccco3)C(C(C)=O)=C2c2ccccc2)C(OC(C)=O)C(OC(C)=O)C1OC(C)=O (stereo unspecified)
6. CN(C)CCNc1nc2c(no[n+]2[O-])c2ccccc12
7. CC(=O)N(CN1C(=O)CCC1C(=O)O)c1ccccc1Cl (stereo unspecified)
8. CC(=O)O[C@H]1CC[C@H]2[C@@H]3CCC(C(C)=O)[C@H](C(=O)O)[C@H]3CC[C@]12C (stereo partly specified)

> 100 µM
> 100 µM
> 10 µM
> 100 µM
> 100 µM
32.8 µM
> 100 µM
> 100 µM

// input: 3 compounds below; output: TGI for each
1. COc1ccc(N2C(=O)C3CC4=CC(=O)C[C@H]4[C@H]32)cc1 (stereo partly specified)
2. C=CCC(CNC(=O)OCc1ccccc1)OC(=O)OCc1ccccc1 (stereo unspecified)
3. O=c1c2c3c(sc2n2c(-c4ccc(Br)cc4)nnc2n1Cc1ccccc1)CCCC3

1: > 100 µM; 2: > 100 µM; 3: 37 µM

###

# System: IGROV1 ovarian
# ASSAY PROTOCOL: NCI tumour cell line growth inhibition, 48 h
MEASURED PARAMETER: GI50

Check the records and state GI50 for "O=C(CCl)Nc1cc(O)c2c(c1)C(=O)c1cccc(O)c1C2=O"
0.942 µM

// input: 4 compounds below; output: GI50 for each
1. O=C(Nc1cc(-c2cccnc2)nc(NCCCN2CCOCC2)n1)c1cc(Br)cc(C(F)(F)F)c1
2. COc1ccc(NC(=O)/C=C(C)/C=C/C=C(C)\C=C\C2=C(C)CCCC2(C)C)cc1
3. OC(COc1cccc2ccccc12)CN1CCN(c2ccccc2Cl)CC1 (stereo not given)
4. O=C(Nc1ccc(I)cc1F)c1cc(I)ccc1O

["4.67 µM", "54.3 µM", "10 µM", "0.611 µM"]

###

# Test system: KM12 colon
# ASSAY PROTOCOL: NCI tumour cell line growth inhibition, 48 h
MEASURED PARAMETER: TGI

# annotated cases, reported TGI shown
Check the records and state TGI for "Nc1ccc(-c2nc3ccccc3s2)cc1Br"
> 100 µM

Check the records and state TGI for "Cc1cccc(NC2=NCCO2)c1Cl"
> 100 µM

Check the records and state TGI for "CCc1nc(-n2c(-c3ccccc3)nc3ccccc3c2=O)nc(N)c1-c1ccc(Cl)cc1"
> 100 µM

Check the records and state TGI for "CCOC(=O)NC(=O)c1c[nH]c(=O)[nH]c1=O"
> 100 µM

Check the records and state TGI for CCC1(O)CC(OC2CC(N(C)C)C(OC3CC(O)C(OC4CCC(=O)C(C)O4)C(C)O3)C(C)O2)c2c(O)c3c(c(O)c2C1C(=O)OC)C(=O)c1cccc(O)c1C3=O (centres undefined)
1.28 µM

Check the records and state TGI for "Nc1nc(N)c(-c2ccccc2)c(CCC(=O)Nc2ccc(Cl)cc2)n1"
> 100 µM

Check the records and state TGI for "CC1=C(C(=O)Nc2ccccc2)C(c2ccc(C(C)C)cc2)C(C(=O)Nc2ccccc2)=C(C)N1"
77.8 µM

Check the records and state TGI for "Cc1nnc(-c2ccc(-c3nc4ccccc4o3)cc2)o1"
> 100 µM

// input: 5 molecules below; output: TGI for each
1. O=C(NCCCCOCC#Cc1ccccc1C#CCS(=O)(=O)c1ccccc1)c1cc2ccccc2[nH]1
2. COc1ccc(-c2c(N)n[nH]c2-c2cc(OC)c(OC)c(OC)c2)cc1
3. Cn1ccnc1C[N-]Cc1nccn1C.O=[N+]([O-])[O-].O=[N+]([O-])[O-].[Cu+2]
4. O=C(CC(=O)c1ccccc1)c1ccccc1
5. CC(=O)O[C@H]1C=CC23OC(=O)[C@]1(C)[C@H]2[C@H](C(=O)O)C12CC(=O)[C@@](CO)(CC[C@H]13)C2

1. > 50 µM
2. 18 µM
3. > 100 µM
4. > 100 µM
5. > 100 µM

// input: 5 molecules below; output: TGI for each
1. Cc1ccc(NC(=O)CCC(=O)C(C#N)c2ccccc2)cc1C (centres undefined)
2. CCN(CC)CCNc1ccc2ncn3c4cc(=O)ccc4c(O)c1c23
3. O=C1C[C@H](c2ccc(O)c(O)c2)Oc2cc(O)cc(O)c21
4. C=C1c2nc3ccccc3n2C=C(c2ccc(OC)cc2)N1c1ccc(OCCN2CCOCC2)cc1
5. Brc1cccc[n+]1-c1ccc2cc(-[n+]3ccccc3Br)ccc2c1

> 100 µM
22.1 µM
> 100 µM
> 100 µM
40 µM

// input: 5 molecules below; output: TGI for each
1. CO[C@H](C(=O)O)[C@@H]1Cc2cc3cc(OC4CC(OC5CC(O)C(O)C(C)O5)C(O)C(C)O4)c(C)c(O)c3c(O)c2C(=O)[C@H]1OC1CC(OC2CC(OC3CC(C)(O)C(O)C(C)O3)C(O)C(C)O2)C(O)C(C)O1 (some centres undefined)
2. CC1CN=C(c2ccc(COc3ccc(C4=NCC(C)N4)cc3)cc2)N1 (centres undefined)
3. O=C1c2cc([N+](=O)[O-])sc2C(=O)c2ccsc21
4. OC(COc1cccc2ccccc12)CN1CCN(c2ccccc2Cl)CC1 (centres undefined)
5. CCOP(=O)(OCC)C(Nc1ccc(F)cc1)c1ccccc1 (centres undefined)

1: 2.59 µM; 2: > 100 µM; 3: 1.77 µM; 4: 25.9 µM; 5: > 100 µM

// input: 6 molecules below; output: TGI for each
1. C1CC[N-]CC1.CC(=N\O)/C(C)=N/O.CC(=N\O)/C(C)=N/O.[CH2-]CCN1CCOCC1.[Co+2]
2. NS(=O)(=O)c1ccc(NC(=O)COC(=O)c2cccc3c(=O)c4ccccc4[nH]c23)cc1
3. CC1(C)CC2C(C1=O)C1(C)CCCC2(C)C1=O (centres undefined)
4. CCCCCCNC(=O)Oc1ccc(/C(=C(\C)c2ccccc2)c2ccc(OCCN(CC)CC)cc2)cc1
5. COc1ccc2[nH]c(O)c(/C=c3/cc4c(c(-c5ccc(F)cc5)n3)=Nc3ccccc3-4)c2c1
6. COC(=O)C1CC(C(=O)OC)c2nc3cc(C)c(C)cc3nc21 (centres undefined)

["> 100 µM", "> 85.5 µM", "> 100 µM", "10 µM", "4.46 µM", "> 100 µM"]
